AUC(0-t) for assorted compounds
# measurement-protocol: Pharmacokinetic assessment of X842 in rats (IV, single oral, repeated oral)
# Assay type: in vivo, Sprague-Dawley rats
# assay-setup: female, Sprague-Dawley, rat, plasma, iv, 0.6 mg/kg, female rats, intravenous X842; plasma analyte as labelled; read-out: AUC(0–24h)
observed-property: AUC(0-t) (ng·h/mL)

compound=Cc1cccc(C)c1CNc1cc(C(=O)NCCO)cn2c(C)c(C)nc12 observed_value=133
compound="Cc1cccc(C)c1CNc1cc(C(=O)NCCOC(=O)CCCC(=O)O)cn2c(C)c(C)nc12 [X842, linaprazan glurate]" observed_value=218

###

half-life for assorted molecules
# measurement-protocol: Pharmacokinetic assessment of X842 in rats (IV, single oral, repeated oral)
# Assay type: in vivo, Sprague-Dawley rats
# assay-setup: female, Sprague-Dawley, rat, plasma, iv, 0.6 mg/kg, female rats, intravenous X842; plasma analyte as labelled; read-out: t1/2 (converted)
observed-property: half-life (h)

molecule=Cc1cccc(C)c1CNc1cc(C(=O)NCCO)cn2c(C)c(C)nc12 observed_property=half-life unit_annotation=h observed_value=2
molecule="Cc1cccc(C)c1CNc1cc(C(=O)NCCOC(=O)CCCC(=O)O)cn2c(C)c(C)nc12 [X842, linaprazan glurate]" observed_property=half-life unit_annotation=h observed_value=0.4
